system: HS 578T breast; test: NCI-60 one-dose screen, 48 h (100 = growth as untreated, 0 = no growth, -100 = all killed); conditions: 10 µM unless noted
About 83,000 compounds went through this panel and 20% of them were active in at least one assay; those are over-represented in the sample as a whole.
If the reported growth equals or exceeds 80%, assign Y. If not, assign N.

Past entries and their recorded results:
- Compound: "Cc1ccc2nc(Cl)c(Cn3nnnc3SCc3ccccc3)cc2c1"
  Category label: "Y"
- Compound: "COc1ccc(NC(=O)c2ccc(C(=O)Nc3ccc(OC)cc3OC)cc2)c(OC)c1"
  Category label: "N"
- Compound: "Cn1cc(-c2nc(-c3c[nH]c4ccncc34)cs2)c2cc(Br)ccc21"
  Category label: "N"
- Compound: "COc1ccc(/C=C/C(=O)c2ccc(Nc3nc(Nc4ccc(F)cc4)nc(Nc4ccc(Cl)cc4)n3)cc2)cc1"
  Category label: "Y"

Problem: I'd appreciate it if you could say whether O=C1Nc2ccc(F)cc2/C1=N/c1nnc(Sc2ccccc2)s1 has growth at least equal to 80%.
Result: Y

Problem: Does the compound CCN(CC)c1ccc(/C=C\c2cc(C)c3cc(C)ccc3n2)cc1 have recorded growth that is 80% or more?
Result: N

Problem: Does growth meet or surpass 80% for C=NNc1ccccc1 ?
Result: Y

Problem: Given the entry CCCCCCCCn1ccc2cc(NC(=O)Cn3cc(CN4CCCCCC4)nn3)ccc21 , answer whether its growth meets or surpasses 80%.
Result: N

Problem: Decide: growth of CC(C)c1ccc(C(=O)Nc2sc3cc(O)ccc3c2C#N)cc1 >= 80%?
Result: N
